Reported pKi values are given for each entry in this list.
Molecular target: DOR (Homo sapiens, UniProt P41143)
Sequence (P41143 whole entry): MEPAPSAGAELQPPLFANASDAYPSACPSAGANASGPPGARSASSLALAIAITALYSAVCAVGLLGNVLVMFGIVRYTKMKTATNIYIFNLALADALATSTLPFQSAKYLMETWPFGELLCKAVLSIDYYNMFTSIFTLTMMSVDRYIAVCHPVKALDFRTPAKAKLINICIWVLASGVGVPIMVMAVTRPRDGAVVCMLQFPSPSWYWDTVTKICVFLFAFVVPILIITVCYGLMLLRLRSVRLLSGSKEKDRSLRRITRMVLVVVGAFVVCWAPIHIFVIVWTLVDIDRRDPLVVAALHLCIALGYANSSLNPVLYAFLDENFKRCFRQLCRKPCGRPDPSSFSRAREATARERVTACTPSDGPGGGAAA
Scale: pKi equals -log10([C]), with [C] in mol/L.

// Input: `CNC(=O)[C@@]12C[C@@H]1[C@@H](n1cnc3c(NCc4cccc(Cl)c4)nc(C#Cc4ccc(F)c(F)c4)nc31)[C@H](O)[C@@H]2O` . Output its pKi only.
5.61

// Input: `CCOC(=O)[C@@]12C[C@@H]1[C@@H](n1ccc3c(NC)nc(C#Cc4ccccc4)nc31)[C@H](O)[C@@H]2O` . Output its pKi only.
5.75

// Input: `CCOC(=O)[C@@]12C[C@@H]1[C@@H](n1ccc3c(NC)nc(C#Cc4ccc(Cl)s4)nc31)[C@H](O)[C@@H]2O` . Output its pKi only.
6.10

// Input: `CCOC(=O)[C@@]12C[C@@H]1[C@@H](n1ccc3c(NC)nc(I)nc31)[C@H](O)[C@@H]2O` . Output its pKi only.
5.80

// Input: `O[C@@H]1[C@H](O)[C@@H]2C[C@@H]2[C@H]1n1cnc2c(NCc3cccc(Cl)c3)nc(C#Cc3ccccc3)nc21` . Output its pKi only.
5.10

More entries:
// Input: `CCOC(=O)[C@@]12C[C@@H]1[C@@H](n1ccc3c(NC)nc(C#Cc4ccc(Br)s4)nc31)[C@H](O)[C@@H]2O` . Output its pKi only.
6.36

// Input: `CCOC(=O)[C@@]12C[C@@H]1[C@@H](n1ccc3c(NC4CC4)nc(C#Cc4ccccc4)nc31)[C@H](O)[C@@H]2O` . Output its pKi only.
5.62

// Input: `CCOC(=O)[C@@]12C[C@@H]1[C@@H](n1ccc3c(NC)nc(C#Cc4ccc(Cl)s4)nc31)[C@@H]1OC(C)(C)O[C@@H]12` . Output its pKi only.
5.70

// Input: `CCOC(=O)[C@@]12C[C@@H]1[C@@H](n1ccc3c(NCCc4ccccc4)nc(C#Cc4ccccc4)nc31)[C@H](O)[C@@H]2O` . Output its pKi only.
6.20

// Input: `O[C@@H]1[C@H](O)[C@@H]2C[C@@H]2[C@H]1n1ccc2c(NCCc3ccccc3)nc(C#Cc3ccccc3)nc21` . Output its pKi only.
5.44

----------
Reported KOR Antag (%) values are given for each entry in this list.
Target: UniProt P41145
Sequence (P41145 whole entry): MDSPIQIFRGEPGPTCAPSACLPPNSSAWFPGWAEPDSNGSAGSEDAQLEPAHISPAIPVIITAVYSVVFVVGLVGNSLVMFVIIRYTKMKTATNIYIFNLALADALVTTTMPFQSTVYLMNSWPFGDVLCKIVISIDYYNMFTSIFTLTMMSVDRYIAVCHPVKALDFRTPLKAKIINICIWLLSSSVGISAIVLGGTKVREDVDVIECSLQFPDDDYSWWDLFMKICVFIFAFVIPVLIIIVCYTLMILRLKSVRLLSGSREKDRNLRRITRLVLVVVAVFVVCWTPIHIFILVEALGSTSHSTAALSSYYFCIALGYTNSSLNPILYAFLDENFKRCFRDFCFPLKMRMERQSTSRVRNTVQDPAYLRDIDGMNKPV
Assay: β-arrestin-recruitment TANGO assay at KOR
Assay type: cell-based
Details: 10 μM; vs naloxone 121 = 100% inhibition; agonist 109 (3 nM)
Form entry: value (%) — number only.

# example entries with known answers
// Input: CCOC(=O)[C@@]12C[C@@H]1[C@@H](n1cnc3c(NC)nc(C#Cc4ccc(Br)s4)nc31)[C@H](O)[C@@H]2O [compound 25] . Output its KOR Antag (%) only.
88.1

// Input: CCCCC(=O)[C@@]12C[C@@H]1[C@@H](n1ccc3c(NC)nc(C#Cc4ccc(Cl)s4)nc31)[C@H](O)[C@@H]2O [compound 44] . Output its KOR Antag (%) only.
65.5

// Input: CCOC(=O)[C@@]12C[C@@H]1[C@@H](n1ccc3c(NC)nc(C#Cc4ccc(Cl)s4)nc31)[C@H](O)[C@@H]2O [compound 28] . Output its KOR Antag (%) only.
99.6

// Input: CCOC(=O)[C@@]12C[C@@H]1[C@@H](n1cnc3c(NC)nc(C#Cc4ccc(Cl)s4)nc31)[C@H](O)[C@@H]2O [compound 24] . Output its KOR Antag (%) only.
58.2

// Input: CCOC(=O)[C@@]12C[C@@H]1[C@@H](n1ccc3c(NC)nc(C#Cc4ccc(Br)s4)nc31)[C@H](O)[C@@H]2O [compound 29] . Output its KOR Antag (%) only.
104.5

More entries:
// Input: CNC(=O)[C@@]12C[C@@H]1[C@@H](n1cnc3c(NCc4cccc(Cl)c4)nc(C#Cc4ccc(F)c(F)c4)nc31)[C@H](O)[C@@H]2O [compound 4] . Output its KOR Antag (%) only.
125

// Input: CNc1nc(C#Cc2ccc(Cl)s2)nc2c1ncn2[C@H]1[C@H](O)[C@H](O)[C@]2(C(=O)OCc3ccccc3)C[C@H]12 [compound 35] . Output its KOR Antag (%) only.
112.9
